Consider the following molecules; for each one, report its metabolised at 0.25 h, 1 µM.
assay_text: Drug metabolism in human liver microsomes at 1 uM after 15 mins by LC-MS/MS analysis
Assay type: ADME, microsome
particulars: read-out: Drug metabolism
Answers are plain numbers, in %.

Provide each entry's metabolised at 0.25 h, 1 µM from the list below.
1. CN(C)S(=O)(=O)c1cccc(C(=O)Nc2ccc(F)cc2)c1
2. CC[C@@H](C)NS(=O)(=O)c1cccc(C(=O)Nc2ccc(F)cc2)c1

Output:
1. 50
2. 21

* * *

Test system: HepG2
assay_text: Cytotoxicity against human HepG2 cells after 4 to 6 days by resazurin assay
Assay type: cell-based
particulars: hepg2
observable: EC20 (µM)
Answers are plain numbers, in µM.

Input: For HepG2, provide EC20 of "CC(C)NS(=O)(=O)c1cccc(C(=O)Nc2ccc(F)c(F)c2)c1" please.
Output: 1

* * *

assay_text: Cytotoxicity against human HepG2 cells after 6 days by resazurin assay
Assay type: cell-based
observable: CC50 at 144 h (µM)
Numbers only, in µM.

# annotated cases, reported CC50 at 144 h shown
Input: GET /values?readout=CC50 at 144 h&item= "O=C(Nc1ccc(F)cc1)c1ccc(Cl)c(S(=O)(=O)N2CCCCCC2)c1"
Output: 17

Input: GET /values?readout=CC50 at 144 h&item= "O=C(Nc1ccccc1)c1cccc(S(=O)(=O)NC2CCCC2)c1"
Output: 27.2

Others:
Input: GET /values?readout=CC50 at 144 h&item= "O=C(Nc1ccccc1)c1ccc(F)c(S(=O)(=O)NC2CCCCC2)c1"
Output: 16.4

* * *

System: HBV genotype D
assay_text: Antiviral activity against HBV genotype D infected in human HepG2.2.15 cells assessed as inhibition of viral DNA level treated twice for 3 days measured after 6 days by real time PCR
Assay type: functional, organism-based
particulars: Hepatitis B virus
Consider the following molecules; for each one, report its pEC50.
One number for each entry, as −log10 of the molar value.

# annotated cases, reported pEC50 shown
Input: GET /values?readout=pEC50&item= "Cc1cc(NC(=O)c2cccc(S(=O)(=O)NC3(C)COC3)c2)ccc1F"
Output: 6.92

Input: GET /values?readout=pEC50&item= "O=C(Nc1ccc(F)cc1)c1cccc(S(=O)(=O)NC2CCCC2)c1"
Output: 6.33

Provide each entry's pEC50 from the list below.
1. CN(C1CCCC1)S(=O)(=O)c1cccc(C(=O)Nc2ccc(F)cc2)c1
2. COc1cc(NC(=O)c2cccc(S(=O)(=O)N[C@H]3CCOC3)c2)ccc1F
3. O=C(Nc1ccccc1)c1cc(S(=O)(=O)N2CCCCC2)c(Cl)cc1Cl

Output:
5.59
5.63
6.30

Provide each entry's pEC50 from the list below.
1. CN(C)S(=O)(=O)c1cccc(C(=O)Nc2ccc(F)cc2)c1
2. Cc1c(NC(=O)c2cccc(S(=O)(=O)N[C@H]3CCOC3)c2)ccc(F)c1F
3. Cc1cc(NC(=O)c2cccc(S(=O)(=O)NC3CCCC3)c2)ccc1F
4. O=C(Nc1ccc2ccccc2c1)c1cc(S(=O)(=O)NC2CCCCC2)ccc1F
5. CC(C)NS(=O)(=O)c1cccc(C(=O)Nc2ccc(F)c(C3CC3)c2)c1

Output:
1: 5.30; 2: 5.44; 3: 7.00; 4: 4.90; 5: 6.49
